experiment: yeast display, Sf9 membrane polyspecificity reagent, FACS + sequencing; frameworks hold sequencing errors
parameter-measured: polyreactivity (PSR sort gate)

Previously resolved entries follow.
QVQLVESGGGLVQAGGSLRLSCAASGLIFDVNTMGWYRQAPGKERELVAAITGSGGRTYYADSVKGRFTISRDNGKNTVYLQMNSLKPEDTAFYYCNADTSYVGFDYWGQGTQVTVSS	low polyreactivity
QVQLVESGGGLVQAGGSLRLSCAASGRIFQYYTMGWNRQAPGKERELVAAITYSGGDTRYADSVKGRFTISRDTAKNTVYLQMNSLKPEDTAVYYCAADYFDQYQYGVWTYGYWGQGTQVTVSS	low polyreactivity
QVQLVESGGGLVQAGGSLRLSCAASGSTFAWYAMGWYRQATGKETELVAVITRRGGSTYYADSVKGRFTISRDNAKNTVYLQMNSLKPEDTAVYYCAAEYQVSHWYRTASVYDYDSWGQGTQVTVSS	high polyreactivity
QVQLVESGGGLVQAGGSLRLSCAASGFIFAVYAMGWYRQAPGKERELVARISSGRGSTYYADSVKGRFTISRDNAKNTVYFQMNSLKPEDTAVYYCAADPVHRFPGTGGYWGQGTQVTVSS	low polyreactivity
QVQLVESGGGLVQAGGSLRLSCAASGSIFPDYGMGWYRQAPGKEREFVAAIDWSGTSTYYADSVKGRFTISRDNAKNTVYLQMNSLKPEDTAVYYCAARWDKSPFKLYDSWGQGTQVTVSS	low polyreactivity

Name the recorded polyreactivity (PSR sort gate) for QVQLVESAGGLVQAGGSLRLSCAASGRIFSHYAMGWYRQAPGKERELVAAITSSGGSTSYADSVKGRFTISRDNAKNTVYLQMNSLKPEDTAVYYCAAEDTQVRRSPVRPLEDYWGQGTQVTVSS .
low polyreactivity
